Values were extracted from PubChem BioAssay AID1222.

# MEASUREMENT PROTOCOL: rescue of cells from ER stress-induced death, primary screen, 384-well, CSM14.1, thapsigargin, ATP luminescence (AID 1222);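 further: death triggered by thapsigargin at about 15 µM added after 2 h compound pretreatment; cell ATP read after overnight thapsigargin exposure of roughly 18 to 22 hours; reference of the scale not given here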
# TEST CONTEXT: CSM14.1 thapsigargin-induced death rescue, at 20 µM, hits give high values
Out of some 190,000 compounds screened, fewer than 10 were called active. The list is a sample of the results. Results with a measured potency or affinity are listed apart.
I'd appreciate it if you could supply cellular ATP content (survival) values for the items below.
Answers are plain numbers, in %.

compound=CC(=O)Nc1ccccc1C(=O)N1CCN(c2cccc(C)c2C)CC1 assay_readout="cellular ATP content (survival)" observed_measurement=-1.4
compound=O=C(OCCCC(=O)N1CCOCC1)c1ccccc1 assay_readout="cellular ATP content (survival)" observed_measurement=-1
compound="CCN1C=C(Cc2ccc(OC)cc2)C2=C(C1)C(c1ccc(OC)cc1)C(C#N)=C(N)O2 (stereo not given)" assay_readout="cellular ATP content (survival)" observed_measurement=-1.8

Report cellular ATP content (survival) for each item below.
1. O=C(CSc1ncnc2nc[nH]c12)N1CCN(c2ccccc2)CC1
2. COc1cc(C(C#N)N2N=C(c3ccccc3)CC2c2ccccc2)ccc1O (stereo not given)

result:
0.6
0.2
